molecular target: HA-tagged human β2-adrenergic receptor (β2AR) (Homo sapiens, UniProt P07550); experiment: arrestin-GFP localization (Fgrains) assay in U20S-β2AR/ArrGFP cells, isoproterenol stimulated; settings: B2AR CO2 plate: 37° C., 5% CO2/95% O2; 100 nM isoproterenol
Sequence (P07550 whole entry): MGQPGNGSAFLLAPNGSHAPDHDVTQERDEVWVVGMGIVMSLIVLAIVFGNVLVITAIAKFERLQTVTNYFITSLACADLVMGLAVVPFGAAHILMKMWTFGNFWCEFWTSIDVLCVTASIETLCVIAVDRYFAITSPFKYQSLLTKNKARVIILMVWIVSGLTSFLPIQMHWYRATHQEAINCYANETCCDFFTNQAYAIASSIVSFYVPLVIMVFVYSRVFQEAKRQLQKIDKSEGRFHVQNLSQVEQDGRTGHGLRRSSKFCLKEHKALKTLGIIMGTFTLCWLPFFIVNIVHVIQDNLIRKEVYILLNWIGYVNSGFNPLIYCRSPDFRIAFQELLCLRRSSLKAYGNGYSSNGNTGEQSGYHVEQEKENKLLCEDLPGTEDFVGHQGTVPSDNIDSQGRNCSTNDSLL
Entries and their measured pEC50 follow.
quantity: pEC50

[[record]]
compound = "NCCCn1cc(C2=C(c3c[nH]c4ccccc34)C(=O)NC2=O)c2ccccc21 [Bisindolylmaleimide III]"
target_desc = "HA-tagged human β2-adrenergic receptor (β2AR) (Homo sapiens, UniProt P07550)"
reported_measurement = 5.0

[[record]]
compound = "Cl.NCCCn1cc(C2=C(c3c[nH]c4ccccc34)C(=O)NC2=O)c2ccccc21 [Bisindolylmaleimide III, Hydrochloride]"
target_desc = "HA-tagged human β2-adrenergic receptor (β2AR) (Homo sapiens, UniProt P07550)"
reported_measurement = 3.6

[[record]]
compound = "O=C1NC(=O)C(c2cn(CCCN3CCNCC3)c3ccccc23)=C1c1c[nH]c2ccccc12 [Bisindolylmaleimide VII]"
target_desc = "HA-tagged human β2-adrenergic receptor (β2AR) (Homo sapiens, UniProt P07550)"
reported_measurement = 4.7

[[record]]
compound = "Cn1cc(C2=C(c3c4n(c5ccccc35)CCC(CN)C4)C(=O)NC2=O)c2ccccc21 (stereo not drawn)"
target_desc = "HA-tagged human β2-adrenergic receptor (β2AR) (Homo sapiens, UniProt P07550)"
reported_measurement = 5.1

[[record]]
compound = "CN1CCCC1CCn1cc(C2=C(c3c[nH]c4ccccc34)C(=O)NC2=O)c2ccccc21 (stereo not drawn) [Bisindolylmaleimide II]"
target_desc = "HA-tagged human β2-adrenergic receptor (β2AR) (Homo sapiens, UniProt P07550)"
reported_measurement = 4.2

[[record]]
compound = "Cn1cc(C2=C(c3cn(CCCN)c4ccccc34)C(=O)NC2=O)c2ccccc21"
target_desc = "HA-tagged human β2-adrenergic receptor (β2AR) (Homo sapiens, UniProt P07550)"
reported_measurement = 5.0

